tested.target: T1, rat GIT1 (647-770) (rat, UniProt Q9Z272 647-770)
T1 chain: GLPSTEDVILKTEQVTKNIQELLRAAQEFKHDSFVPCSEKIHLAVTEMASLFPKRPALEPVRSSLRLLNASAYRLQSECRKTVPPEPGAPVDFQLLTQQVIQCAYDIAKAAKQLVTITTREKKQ
protocol.notes: ITC
Where no end group is shown, it is not given here.
outcome.measure: Kd (µM)
Report as a plain number; the unit µM is understood.

Fill blank: measured Kd of the binder ATDELDALLASLTENLID (also: N-terminal FITC-Ahx only in labelled form, predicted LD motif of human EPB41L5 (Band 4.1-like protein 5); also called E41L5; YMO1; source: synthetic peptide, bought: GenScript) [EPB41L5 (Band 4.1-like protein 5) LD motif peptide] is ____.
39.3
